target: cIAP2-BIR2 (Homo sapiens (Human), UniProt Q13489); experiment: BIR binding assay (FRET competition), cIAP2 BIR2
Sequence (Q13489 158-242): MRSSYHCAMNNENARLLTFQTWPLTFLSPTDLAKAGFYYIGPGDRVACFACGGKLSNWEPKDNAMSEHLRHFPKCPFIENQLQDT

chem-smiles	IC50
C[C@@H]1CN(CC(=O)N2CC(C)(C)c3[nH]c(=O)c(Cc4c(Cl)cc(Cl)cc4Cl)cc32)[C@@H](CN2CCO[C@H](C(=O)NCc3ccc(CNC(=O)[C@@H]4CN(C[C@H]5CN[C@H](C)CN5CC(=O)N5CC(C)(C)c6[nH]c(=O)c(Cc7c(Cl)cc(Cl)cc7Cl)cc65)CCO4)cc3)C2)CN1	10 to 51.3 µM
C[C@@H]1CN(CC(=O)N2CC(C)(C)c3[nH]c(=O)c(Oc4ccc(Cl)cc4)cc32)[C@@H](CN2CCO[C@H](C(=O)NCc3ccc(CNC(=O)[C@@H]4CN(C[C@H]5CN[C@H](C)CN5CC(=O)N5CC(C)(C)c6[nH]c(=O)c(Oc7ccc(Cl)cc7)cc65)CCO4)cc3)C2)CN1	3.16 to 10 µM
C[C@@H]1CN(CC(=O)N2CC(C)(C)c3[nH]c(=O)c(Cc4ccc(F)cc4)cc32)[C@@H](CN2CCO[C@H](C(=O)N(C)CCCCN(C)C(=O)[C@@H]3CN(C[C@H]4CN[C@H](C)CN4CC(=O)N4CC(C)(C)c5[nH]c(=O)c(Cc6ccc(F)cc6)cc54)CCO3)C2)CN1	1 to 3.16 µM

====

Examples of compounds with documented IC50 follow.
biological target: cIAP1-BIR3 (Homo sapiens (Human)); assay: BIR binding assay (FRET competition), cIAP1 BIR3

compound	IC50
C[C@@H]1CN(CC(=O)N2CC(C)(C)c3[nH]c(=O)c(Cc4ccc(F)cc4)cc32)[C@@H](CN2CCN(S(=O)(=O)c3ccc(Oc4ccc(S(=O)(=O)N5CCN(C[C@H]6CN[C@H](C)CN6CC(=O)N6CC(C)(C)c7[nH]c(=O)c(Cc8ccc(F)cc8)cc76)[C@H](C)C5)cc4)cc3)C[C@H]2C)CN1 [Example 30]	31.6 to 501 nM
C[C@@H]1CN(CC(=O)N2CC(C)(C)c3[nH]c(=O)c(Cc4ccc(F)cc4)cc32)[C@@H](CN2CCO[C@H](C(=O)N3CCCN(C(=O)[C@@H]4CN(C[C@H]5CN[C@H](C)CN5CC(=O)N5CC(C)(C)c6[nH]c(=O)c(Cc7ccc(F)cc7)cc65)CCO4)CC3)C2)CN1 [Example 131]	31.6 to 501 nM
C[C@@H]1CN(CC(=O)N2CC(C)(C)c3[nH]c(=O)c(Cc4ccc(F)cc4)cc32)[C@@H](CN2CCO[C@H](C(=O)N3CCN(C(=O)[C@@H]4CN(C[C@H]5CN[C@H](C)CN5CC(=O)N5CC(C)(C)c6[nH]c(=O)c(Cc7ccc(F)cc7)cc65)CCO4)CC3)C2)CN1 [Example 118]	7.94 to 15.8 nM
C[C@@H]1CN(CC(=O)N2CC(C)(C)c3[nH]c(=O)c(Cc4ccc(F)cc4)cc32)[C@@H](CN2CCO[C@H](C(=O)N(C)CC3CCN(C(=O)[C@@H]4CN(C[C@H]5CN[C@H](C)CN5CC(=O)N5CC(C)(C)c6[nH]c(=O)c(Cc7ccc(F)cc7)cc65)CCO4)CC3)C2)CN1 [Example 132]	7.94 to 15.8 nM

====

target: cIAP1-BIR3 (Homo sapiens (Human), UniProt Q13490); experiment: BIR binding assay (FRET competition), cIAP1 BIR3
Sequence (Q13490 253-363): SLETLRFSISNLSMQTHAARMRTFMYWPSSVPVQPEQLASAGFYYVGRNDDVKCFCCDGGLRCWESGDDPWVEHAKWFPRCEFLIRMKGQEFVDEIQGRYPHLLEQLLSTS
This section presents compounds with their documented IC50 values.

chem-smiles	IC50
C[C@@H]1CN(CC(=O)N2CC(C)(C)c3[nH]c(=O)c(Cc4ccc(F)cc4)cc32)[C@@H](CN2CCO[C@H](COc3ccc(-c4ccccc4)c(OC[C@@H]4CN(C[C@H]5CN[C@H](C)CN5CC(=O)N5CC(C)(C)c6[nH]c(=O)c(Cc7ccc(F)cc7)cc65)CCO4)c3)C2)CN1	1.38 to 7.94 nM
C[C@@H]1CN(CC(=O)N2CC(C)(C)c3[nH]c(=O)c(Cc4c(F)cc(F)cc4F)cc32)[C@@H](CN2CCO[C@H](C(=O)NCc3ccc(CNC(=O)[C@@H]4CN(C[C@H]5CN[C@H](C)CN5CC(=O)N5CC(C)(C)c6[nH]c(=O)c(Cc7c(F)cc(F)cc7F)cc65)CCO4)cc3)C2)CN1	7.94 to 15.8 nM

====

Test system: Jurkat HIV-luciferase clones
Assay: Jurkat latency reversal assay
Assay type: cell-based
Details: Homo sapiens, 48 h; Jurkat latency reversal assay potency; read-out: Jurkat pEC50 (converted)
Description: Jurkat HIV-luciferase clones were maintained in RPMI medium 1640 (Gibco by Life Technologies) containing 10% (vol/vol) fetal bovine serum (SAFC/Sigma-Aldrich) and 25 units/mL penicillin, 25 units/mL streptomycin (Gibco by Life Technologies), and were split 1:4 every 3 to 4 days to maintain a cell density of ˜0.3 to 1 million cells/mL. […] Luminescence resulting from the induction of the virally expressed luciferase was measured using an EnVision 2102 Multilabel Plate Reader (Perkin Elmer). […]
Documented EC50 across a set of compounds
test-readout: EC50

chem-smiles	meas-value
C[C@@H]1CN(CC(=O)N2CC(C)(C)c3[nH]c(=O)c(Cc4ccc(F)cc4)cc32)[C@@H](CN2CCN(C(=O)COCCOCC(=O)N3CCN(C[C@H]4CN[C@H](C)CN4CC(=O)N4CC(C)(C)c5[nH]c(=O)c(Cc6ccc(F)cc6)cc54)[C@H](C)C3)C[C@H]2C)CN1	63.1 to 316 nM
C[C@@H]1CN(CC(=O)N2CC(C)(C)c3[nH]c(=O)c(Cc4ccc(F)cc4)cc32)[C@@H](CN2CCN(CCCCCCCCCCN3CCN(C[C@H]4CN[C@H](C)CN4CC(=O)N4CC(C)(C)c5[nH]c(=O)c(Cc6ccc(F)cc6)cc54)[C@H](C)C3)C[C@H]2C)CN1	12.6 to 63.1 nM

====

target: cIAP2-BIR3 (Homo sapiens (Human), UniProt Q13489); experiment: BIR binding assay (FRET competition), cIAP2 BIR3
Sequence (Q13489 238-349): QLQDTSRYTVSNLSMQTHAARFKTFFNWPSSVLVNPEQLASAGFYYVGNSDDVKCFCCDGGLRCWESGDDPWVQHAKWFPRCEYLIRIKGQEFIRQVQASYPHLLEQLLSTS
pIC50: −log10 of the molar value.

compound	measured-target	pIC50
C[C@@H]1CN(CC(=O)N2CC(C)(C)c3c2cc(Cc2ccc(F)cc2)c(=O)n3C)[C@@H](CN2CCO[C@H](COCC#CC#CCOC[C@@H]3CN(C[C@H]4CN[C@H](C)CN4CC(=O)N4CC(C)(C)c5c4cc(Cc4ccc(F)cc4)c(=O)n5C)CCO3)C2)CN1 [Example 116]	cIAP2-BIR3 (Homo sapiens (Human), UniProt Q13489)	7.50 to 7.80
C[C@@H]1CN(CC(=O)N2CC(C)(C)c3[nH]c(=O)c(Cc4ccc(Cl)cc4C(=O)N(C)C)cc32)[C@@H](CN2CCO[C@H](C(=O)NCc3ccc(CNC(=O)[C@@H]4CN(C[C@H]5CN[C@H](C)CN5CC(=O)N5CC(C)(C)c6[nH]c(=O)c(Cc7ccc(Cl)cc7C(=O)N(C)C)cc65)CCO4)cc3)C2)CN1 [Compound 172]	cIAP2-BIR3 (Homo sapiens (Human), UniProt Q13489)	7.80 to 8.10
C[C@@H]1CN(CC(=O)N2CC(C)(C)c3ncc(Cc4ccc(Cl)cc4)cc32)[C@@H](CN2CCO[C@H](COc3cccc(OC[C@@H]4CN(C[C@H]5CN[C@H](C)CN5CC(=O)N5CC(C)(C)c6ncc(Cc7ccc(Cl)cc7)cc65)CCO4)c3)C2)CN1 [Compound 147]	cIAP2-BIR3 (Homo sapiens (Human), UniProt Q13489)	7.50 to 7.80
C[C@@H]1CN(CC(=O)N2CC(C)(C)c3[nH]c(=O)c(Cc4ccc(F)cc4)cc32)[C@@H](CN2CCC(CN(C)C(=O)Cc3ccc(C(=O)N(C)CC4CCN(C[C@H]5CN[C@H](C)CN5CC(=O)N5CC(C)(C)c6[nH]c(=O)c(Cc7ccc(F)cc7)cc65)CC4)cc3)CC2)CN1 [Example 97]	cIAP2-BIR3 (Homo sapiens (Human), UniProt Q13489)	8.10 to 8.86

====

Target: cIAP1-BIR3 (Homo sapiens (Human))
Assay: BIR binding assay (FRET competition), cIAP1 BIR3
Details: fold separation (FS) for cIAP1
Experimental: The BIR domain binding assays are FRET based competition assays that utilize His-tagged versions of each of the BIR2 and BIR3 domains from cIAP1, cIAP2, and XIAP (each domain assayed separately) each at a custom optimal concentration and a probe, 200 nM SMAC/DIABLO peptide […] labelled with AlexaFluor647 (part #crb 1110326h, Discovery Peptides). The assay is conducted in 50 mM HEPES, […], 1 mM CHAPS, 5% Glycerol, 1 mM DTT, in dI water with a final pH of 7.4 and final volume of 20 uL. […]

molecule	cIAP1 BIR3 vs BIR2 separation window
C[C@@H]1CN(CC(=O)N2CC(C)(C)c3ncc(Oc4ccc(F)cc4)cc32)[C@@H](CN2CCO[C@H](COc3cccc(OC[C@@H]4CN(C[C@H]5CN[C@H](C)CN5CC(=O)N5CC(C)(C)c6ncc(Oc7ccc(F)cc7)cc65)CCO4)c3)C2)CN1 [Compound 142]	+++ (10,000>FS>1,000)
C[C@@H]1CN(CC(=O)N2CC(C)(C)c3[nH]c(=O)c(Cc4ccc(F)cc4)cc32)[C@@H](CN2CCO[C@H](C(=O)NCC(O)CNC(=O)[C@@H]3CN(C[C@H]4CN[C@H](C)CN4CC(=O)N4CC(C)(C)c5[nH]c(=O)c(Cc6ccc(F)cc6)cc54)CCO3)C2)CN1 [Compound 137]	+++ (10,000>FS>1,000)
C[C@@H]1CN(CC(=O)N2CC(C)(C)c3[nH]c(=O)c(Cc4ccc(F)cc4)cc32)[C@@H](CN2CCC[C@H](NC(=O)Cc3cccc(CC(=O)N[C@H]4CCCN(C[C@H]5CN[C@H](C)CN5CC(=O)N5CC(C)(C)c6[nH]c(=O)c(Cc7ccc(F)cc7)cc65)C4)c3)C2)CN1 [Example 41]	+++ (10,000>FS>1,000)

Data provenance: patent US20250326771A1
